Hello, the source for this data is ChEMBL document CHEMBL1141332, in case you need it.

Test system: UACC-257
Procedure Summary: Cytotoxicity against human UACC257 cells
Assay type: functional
Assay Setup: read-out: Log LC50 (the source's name) (converted)

{"Compound": "CC(=O)O[C@@H]1C[C@H]2[C@]3(C)CC[C@H]4C(C)(C)CCC[C@]4(C)[C@H]3C[C@H](O)[C@]2(C)[C@@H](C=O)[C@@H]1C(C)=O [SCALARHERBACIN A]", "Lt Gt Eq": "=", "CC50 (µM)": 27.5}
{"Compound": "CC(=O)O[C@H]1C[C@H]2[C@@](C)(CC[C@H]3C(C)(C)CCC[C@@]32CO)[C@@H]2CC=C(C(C)=O)[C@H](C=O)[C@@]12C", "Lt Gt Eq": "=", "CC50 (µM)": 9.55}
{"Compound": "CC(=O)C1=CC[C@H]2[C@]3(C)CC[C@H]4C(C)(C)CCC[C@]4(C(=O)O)[C@H]3CC(=O)[C@]2(C)[C@H]1C=O", "Lt Gt Eq": "=", "CC50 (µM)": 42.7}
{"Compound": "CC1OC(=O)[C@H]2[C@H]1[C@@H](O)C[C@H]1[C@]3(C)CC[C@H]4C(C)(C)CCC[C@]4(C)[C@H]3C[C@@H](O)[C@]21C (some centres undefined)", "Lt Gt Eq": ">", "CC50 (µM)": 100}

====

Tested on: RPMI-8226
Procedure Summary: Cytotoxicity against human RPMI8226 cells
Type: functional
Assay Setup: read-out: Log LC50 (the source's name) (converted)
Measured CC50, listed per entry.
Endpoint Name: CC50 (µM)

{"Compound": "CC(=O)O[C@H]1C[C@H]2[C@@](C)(CC[C@H]3C(C)(C)CCC[C@@]32CO)[C@@H]2CC=C(C(C)=O)[C@H](C=O)[C@@]12C", "Endpoint Name": "CC50", "Unit": "µM", "Lt Gt Eq": "=", "Observed Measurement": 8.13}
{"Compound": "CC1OC(=O)[C@H]2[C@H]1[C@@H](O)C[C@H]1[C@]3(C)CC[C@H]4C(C)(C)CCC[C@]4(C)[C@H]3C[C@@H](O)[C@]21C (some centres undefined)", "Endpoint Name": "CC50", "Unit": "µM", "Lt Gt Eq": ">", "Observed Measurement": 100}
{"Compound": "CC(=O)C1=CC[C@H]2[C@]3(C)CC[C@H]4C(C)(C)CCC[C@]4(C(=O)O)[C@H]3CC(=O)[C@]2(C)[C@H]1C=O", "Endpoint Name": "CC50", "Unit": "µM", "Lt Gt Eq": "=", "Observed Measurement": 12.9}
{"Compound": "CC(=O)O[C@@H]1C[C@H]2[C@]3(C)CC[C@H]4C(C)(C)CCC[C@]4(C)[C@H]3C[C@H](O)[C@]2(C)[C@@H](C=O)[C@@H]1C(C)=O [SCALARHERBACIN A]", "Endpoint Name": "CC50", "Unit": "µM", "Lt Gt Eq": "=", "Observed Measurement": 13.2}

====

System: SF-295
Procedure Summary: Cytotoxicity against human SF295 cells
Assay type: functional
Assay Setup: read-out: Log TGI (converted)
Endpoint Name: TGI (µM)

{"Molecule": "CC(=O)O[C@H]1C[C@H]2[C@@](C)(CC[C@H]3C(C)(C)CCC[C@@]32CO)[C@@H]2CC=C(C(C)=O)[C@H](C=O)[C@@]12C", "Endpoint Name": "TGI", "Unit": "µM", "Observed Measurement": 1.74}
{"Molecule": "CC(=O)O[C@@H]1C[C@H]2[C@]3(C)CC[C@H]4C(C)(C)CCC[C@]4(C)[C@H]3C[C@H](O)[C@]2(C)[C@@H](C=O)[C@@H]1C(C)=O", "Endpoint Name": "TGI", "Unit": "µM", "Observed Measurement": 3.02}
{"Molecule": "CC1OC(=O)[C@H]2[C@H]1[C@@H](O)C[C@H]1[C@]3(C)CC[C@H]4C(C)(C)CCC[C@]4(C)[C@H]3C[C@@H](O)[C@]21C (some centres undefined)", "Endpoint Name": "TGI", "Unit": "µM", "Observed Measurement": 50.1}
{"Molecule": "CC(=O)C1=CC[C@H]2[C@]3(C)CC[C@H]4C(C)(C)CCC[C@]4(C(=O)O)[C@H]3CC(=O)[C@]2(C)[C@H]1C=O", "Endpoint Name": "TGI", "Unit": "µM", "Observed Measurement": 3.16}

====

Entries and their measured GI50 follow.
Test system: MDA-MB-231
Procedure Summary: Cytotoxicity against human MDA-MB-231 cells
Type: functional
Endpoint Name: GI50

{"Molecule": "CC(=O)O[C@@H]1C[C@H]2[C@]3(C)CC[C@H]4C(C)(C)CCC[C@]4(C)[C@H]3C[C@H](O)[C@]2(C)[C@@H](C=O)[C@@H]1C(C)=O", "Endpoint Name": "GI50", "Observed Measurement": "1480 nM"}
{"Molecule": "CC(=O)O[C@H]1C[C@H]2[C@@](C)(CC[C@H]3C(C)(C)CCC[C@@]32CO)[C@@H]2CC=C(C(C)=O)[C@H](C=O)[C@@]12C", "Endpoint Name": "GI50", "Observed Measurement": "891 nM"}
{"Molecule": "CC1OC(=O)[C@H]2[C@H]1[C@@H](O)C[C@H]1[C@]3(C)CC[C@H]4C(C)(C)CCC[C@]4(C)[C@H]3C[C@@H](O)[C@]21C (some centres undefined)", "Endpoint Name": "GI50", "Observed Measurement": "19100 nM"}
{"Molecule": "CC(=O)C1=CC[C@H]2[C@]3(C)CC[C@H]4C(C)(C)CCC[C@]4(C(=O)O)[C@H]3CC(=O)[C@]2(C)[C@H]1C=O", "Endpoint Name": "GI50", "Observed Measurement": "1660 nM"}

====

Tested on: LOX IMVI
Procedure Summary: Cytotoxicity against human LOX IMVI cells
Format: functional
Endpoint Name: GI50

{"Compound": "CC(=O)O[C@@H]1C[C@H]2[C@]3(C)CC[C@H]4C(C)(C)CCC[C@]4(C)[C@H]3C[C@H](O)[C@]2(C)[C@@H](C=O)[C@@H]1C(C)=O [SCALARHERBACIN A]", "Observed Measurement": "1000 nM"}
{"Compound": "CC(=O)O[C@H]1C[C@H]2[C@@](C)(CC[C@H]3C(C)(C)CCC[C@@]32CO)[C@@H]2CC=C(C(C)=O)[C@H](C=O)[C@@]12C", "Observed Measurement": "234 nM"}
{"Compound": "CC1OC(=O)[C@H]2[C@H]1[C@@H](O)C[C@H]1[C@]3(C)CC[C@H]4C(C)(C)CCC[C@]4(C)[C@H]3C[C@@H](O)[C@]21C (some centres undefined)", "Observed Measurement": "17400 nM"}
{"Compound": "CC(=O)C1=CC[C@H]2[C@]3(C)CC[C@H]4C(C)(C)CCC[C@]4(C(=O)O)[C@H]3CC(=O)[C@]2(C)[C@H]1C=O", "Observed Measurement": "1450 nM"}

====

System: MDA-MB-231
Procedure Summary: Inhibition of human MDA-MB-231 cells assessed as cell viability under hypoxic condition after 48 hrs
Type: functional, cell-based
Assay Setup: MDA-MB-231, 48 h
Each entry below carries its recorded IC50.

{"Compound": "CC1OC(=O)[C@H]2[C@H]1[C@@H](O)C[C@H]1[C@]3(C)CC[C@H]4C(C)(C)CCC[C@]4(C)[C@H]3C[C@@H](O)[C@]21C (stereo partly drawn)", "IC50 (µM)": 5.4}
{"Compound": "CC(=O)C1=CC[C@H]2[C@]3(C)CC[C@H]4C(C)(C)CCC[C@]4(C(=O)O)[C@H]3CC(=O)[C@]2(C)[C@H]1C=O", "IC50 (µM)": 1.5}
{"Compound": "COc1ccc2c(O)c(O)ccc2c1-c1c(OC)ccc2c(O)c(O)ccc12", "IC50 (µM)": 7}

====

System: RXF 393
Procedure Summary: Cytotoxicity against human RXF393 cells
Type: functional
Assay Setup: read-out: Log TGI (converted)
# TGI values compiled below

{"Compound": "CC(=O)O[C@@H]1C[C@H]2[C@]3(C)CC[C@H]4C(C)(C)CCC[C@]4(C)[C@H]3C[C@H](O)[C@]2(C)[C@@H](C=O)[C@@H]1C(C)=O [SCALARHERBACIN A]", "Unit": "nM", "TGI": 2510}
{"Compound": "CC(=O)O[C@H]1C[C@H]2[C@@](C)(CC[C@H]3C(C)(C)CCC[C@@]32CO)[C@@H]2CC=C(C(C)=O)[C@H](C=O)[C@@]12C", "Unit": "nM", "TGI": 1120}
{"Compound": "CC(=O)C1=CC[C@H]2[C@]3(C)CC[C@H]4C(C)(C)CCC[C@]4(C(=O)O)[C@H]3CC(=O)[C@]2(C)[C@H]1C=O", "Unit": "nM", "TGI": 2570}
{"Compound": "CC1OC(=O)[C@H]2[C@H]1[C@@H](O)C[C@H]1[C@]3(C)CC[C@H]4C(C)(C)CCC[C@]4(C)[C@H]3C[C@@H](O)[C@]21C (some centres undefined)", "Unit": "nM", "TGI": 29500}
